The measurements presented in this section are drawn from patent EP4768499A1.

experiment: Metabolic stability test: liver microsomal stability assay; type: in vitro ADME, mouse; conditions: mouse liver microsomes 0.5 mg protein/mL, compound 1 µM, absence of NADPH
Starred links: 1 amine or outer side, 2 acyl side, 3 side chain; linkers in the order of their positions; H or OH if unused. Positions of bridges follow the written chain, without caps; N, C: chain ends. Non-standard residues stand in square brackets, D forms with d. Residues, ends and D or L forms follow the SMILES beside them. *: point of attachment. NMedβ3hAla = C[C@H](CC(=O)[*:2])N(C)[*:1]; NMeF = CN[C@@H](Cc1ccccc1)C(=O)O; NMeGABA = CN(CCCC(=O)[*:2])[*:1]; NMeI = CC[C@H](C)[C@H](NC)C(=O)O; hPhe = N[C@@H](CCc1ccccc1)C(=O)O; NMeβAla = CN(CCC(=O)[*:2])[*:1]; NMeD = CN[C@@H](CC(=O)O)C(=O)O; NMeL = CN[C@@H](CC(C)C)C(=O)O; NMeV = CN[C@H](C(=O)O)C(C)C; d(β3hA) = C[C@@H](N)CC(=O)O; NMeAbu = CC[C@H](NC)C(=O)O; NMeA = CN[C@@H](C)C(=O)O; Piperidide = C1CCN(*)CC1; Abu = CC[C@H](N)C(=O)O; NBuGly = CCCCNCC(=O)O; Sar = CNCC(=O)O; tBu = CC(C)(C)*
measured-endpoint: Mouse Hepatic Microsome CLh,int NADPH(-) (µL/min/mg Protein)

INSERT INTO measurements (molecule, number) VALUES
  ('CC[C@H](C)[C@H]1C(=O)N[C@@H](CC(C)C)C(=O)N(C)[C@@H](CC(C)C)C(=O)N2CCC[C@H]2C(=O)N(C)[C@@H](C(C)C)C(=O)N[C@H](C(=O)N2CCCCC2)CC(=O)N(C)[C@@H](C)C(=O)N(C)[C@@H](CC(C)C)C(=O)N[C@@H](COC(C)(C)C)C(=O)N(C)[C@@H](Cc2ccccc2)C(=O)N(C)[C@@H](CC)C(=O)N(C)[C@@H](Cc2ccccc2)C(=O)N[C@@H]([C@@H](C)O)C(=O)N1C [pd119] ([NMeA][NMeL]S(tBu)[NMeF][NMeAbu][NMeF]T[NMeI]L[NMeL]P[NMeV]D-Piperidide; lactam N-13)', 34.2),
  ('CC[C@H](C)[C@@H]1NC(=O)[C@H](C)NC(=O)[C@H](CC(C)C)N(C)C(=O)[C@H](COC(C)(C)C)NC(=O)[C@H](CC(C)C)N(C)C(=O)[C@@H]2CCCN2C(=O)[C@H](Cc2ccccc2)NC(=O)[C@H]([C@@H](C)CC)N(C)C(=O)[C@H](CC(C)C)N(C)C(=O)CCCN(C)C(=O)C[C@@H](C(=O)N2CCCCC2)NC(=O)[C@H](Cc2ccccc2)N(C)C(=O)[C@H](CC)N(C)C1=O [pd098] ([NMeGABA][NMeL][NMeI]FP[NMeL]S(tBu)[NMeL]AI[NMeAbu][NMeF]D-Piperidide; lactam N-13)', 37.8),
  ('CC[C@H](C)[C@@H]1NC(=O)[C@H](CCc2ccccc2)NC(=O)[C@H](CC(C)C)N(C)C(=O)[C@H](C)N(C)C(=O)[C@H](Cc2ccccc2)N(C)C(=O)[C@@H]2CCCN2C(=O)[C@H]([C@@H](C)CC)NC(=O)[C@H](CC(C)C)N(C)C(=O)CCN(C)C(=O)C[C@@H](C)NC(=O)[C@H](CC(C)C)N(C)C(=O)[C@H]([C@@H](C)O)NC(=O)[C@H](C)N(C)C1=O [pd133] (cyclo(I[NMeA]T[NMeL][d(β3hA)][NMeβAla][NMeL]IP[NMeF][NMeA][NMeL][hPhe]))', 23.6),
  ('CC[C@@H]1NC(=O)[C@H](Cc2ccccc2)N(C)C(=O)[C@H]([C@@H](C)O)NC(=O)[C@H](CC(C)C)N(C)C(=O)[C@H](C)N(C)C(=O)C[C@@H](C(=O)N2CCCCC2)N(C)C(=O)[C@H](CC(C)C)N(C)C(=O)[C@H]([C@@H](C)CC)N(C)C(=O)CN(C)C(=O)[C@H](CC(C)C)NC(=O)[C@H](Cc2ccccc2)N(C)C(=O)[C@H](CC(C)C)N(C)C(=O)[C@H]([C@@H](C)CC)N(C)C1=O [pd167] ([NMeA][NMeL]T[NMeF][Abu][NMeI][NMeL][NMeF]L[Sar][NMeI][NMeL][NMeD]-Piperidide; lactam N-13)', 33.0),
  ('CCCCN1CC(=O)N(C)[C@@H](CC(C)C)C(=O)N[C@@H]([C@@H](C)O)C(=O)N(C)[C@@H](C)C(=O)N2CCC[C@H]2C(=O)N[C@@H](CCc2ccccc2)C(=O)N[C@@H]([C@@H](C)CC)C(=O)N(C)[C@H](C(=O)N2CCCCC2)CC(=O)N(C)[C@@H](CC(C)C)C(=O)N[C@@H](COC(C)(C)C)C(=O)N(C)[C@@H](C(C)C)C(=O)N[C@@H]([C@@H](C)CC)C(=O)N2CCC[C@H]2C(=O)N[C@@H](C(C)C)C1=O [pd087] ([NMeL]S(tBu)[NMeV]IPV[NBuGly][NMeL]T[NMeA]P[hPhe]I[NMeD]-Piperidide; lactam N-14)', 29.0),
  ('CC[C@@H]1NC(=O)[C@H](Cc2ccccc2)N(C)C(=O)[C@H](C(C)C)NC(=O)[C@H](COC(C)(C)C)NC(=O)[C@H](C)N(C)C(=O)CN(C)C(=O)[C@H](CC(C)C)NC(=O)[C@@H]2CCCN2C(=O)[C@H](C(C)C)N(C)C(=O)[C@H](C)NC(=O)[C@H](CC)N(C)C(=O)[C@@H](C(C)C)NC(=O)C[C@@H](C(=O)N2CCCCC2)NC(=O)[C@H](C(C)C)N(C)C1=O [pd013] ([dV][NMeAbu]A[NMeV]PL[Sar][NMeA]S(tBu)V[NMeF][Abu][NMeV]D-Piperidide; lactam N-14)', 6.1),
  ('CC[C@H](C)[C@@H]1NC(=O)[C@H](CC(C)C)N(C)C(=O)[C@H](CC(C)C)NC(=O)[C@H](C)N(C)C(=O)[C@H](Cc2ccccc2)N(C)C(=O)[C@@H]2CCCN2C(=O)[C@H](CC(C)C)N(C)C(=O)[C@H](CCc2ccccc2)NC(=O)CCN(C)C(=O)C[C@@H](C)NC(=O)[C@H](CC(C)C)N(C)C(=O)[C@H]([C@@H](C)O)NC(=O)[C@H](C)N(C)C(=O)[C@H](C(C)C)N(C)C1=O [pd056] (cyclo(I[NMeV][NMeA]T[NMeL][d(β3hA)][NMeβAla][hPhe][NMeL]P[NMeF][NMeA]L[NMeL]))', 30.2),
  ('CC[C@@H]1NC(=O)[C@H](CC(C)C)N(C)C(=O)[C@H](COC(C)(C)C)NC(=O)[C@H]([C@@H](C)CC)N(C)C(=O)[C@H](CCc2ccccc2)NC(=O)[C@H](Cc2ccccc2)N(C)C(=O)[C@H]([C@@H](C)CC)NC(=O)[C@H](CC(C)C)N(C)C(=O)[C@H](CC(C)C)N(C)C(=O)CCN(C)C(=O)C[C@@H](C)N(C)C(=O)CN(C)C(=O)[C@H](CC(C)C)N(C)C(=O)[C@@H]2CCCN2C1=O [pd066] (cyclo([Abu]P[NMeL][Sar][NMedβ3hAla][NMeβAla][NMeL][NMeL]I[NMeF][hPhe][NMeI]S(tBu)[NMeL]))', 36.4);
